Taken from the RNAGym collection of RNA variant scans (doi:10.7554/elife.80360).

B1: HDV Ribozyme (parent)
chain: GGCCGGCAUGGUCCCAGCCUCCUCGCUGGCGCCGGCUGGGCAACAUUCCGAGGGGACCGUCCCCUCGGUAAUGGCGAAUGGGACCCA

# Variants of: B1
# assay explanation: self-cleavage, relative activity (ratio to wild type); higher = more cleavage; co-transcriptional
Listed variants paired with reported self-cleavage
Kindly provide the number alone.

Sample answers from the record:
G25U G53C: 0.155
U12G C32A: 0.0639
G29A G31A: 0.0723

We now examine a further variant.
Ask | Please look up its self-cleavage: C18U A87U
Reply | 0.853
